# Tested on: intracellular amastigotes of T. cruzi in infected hFIB
# Assay Protocol: In vitro T. cruzi infection assay (intracellular amastigotes in hFIB, high content imaging)
# Format: cell-based, Trypanosoma cruzi
# Experimental Setup: Trypanosoma cruzi, 72 h, read-out: Amastigote EC50 ± SEM

Molecule	Measurement Target	EC50 [µM]
O=C(Cn1ccnc1[N+](=O)[O-])NCc1ccccc1 [Benznidazole, reference compound]	intracellular amastigotes of T. cruzi in infected hFIB	3.13

====

# Measurement Target: UniProtKB Q4DVL9
# Sequence (Q4DVL9 entry or part of it): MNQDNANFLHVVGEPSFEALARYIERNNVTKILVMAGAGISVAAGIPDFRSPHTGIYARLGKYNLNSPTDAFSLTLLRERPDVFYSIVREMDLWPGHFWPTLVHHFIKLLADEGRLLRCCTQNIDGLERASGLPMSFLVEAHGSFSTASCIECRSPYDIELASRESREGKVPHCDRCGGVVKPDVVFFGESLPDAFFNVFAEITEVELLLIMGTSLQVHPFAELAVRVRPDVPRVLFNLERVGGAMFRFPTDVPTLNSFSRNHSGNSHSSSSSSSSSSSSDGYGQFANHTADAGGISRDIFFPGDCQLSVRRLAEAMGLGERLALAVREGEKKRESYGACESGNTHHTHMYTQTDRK
# Assay Protocol: TcSir2rp1 deacetylase activity assay (fluorogenic peptide, NAD+)
# Experimental Setup: recombinant enzyme; 30 min pre-incubation; sirtuin activity determined 4 h after incubation; read-out: TcSir2rp1 EC50 ± SEM
pEC50: −log10 of the molar value.

Compound	pEC50
CCC/C=C\C/C=C\CCCCCCCc1cccc(O)c1C(=O)O [Compound 5]	4.63
CCCCCC/C=C\CCCCCCCc1cccc(O)c1C(=O)O [Compound 6]	4.79
